- System: T-47D spheroids with HUVEC/MSC, viability
- Assay info: Anticancer human tumor T-47D cell line growth inhibition [PI3K];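 also: spheroids exposed to agents for seven days before reading; percent of DMSO vehicle control luminescence so 100% = untreated growth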
- Details: second compound 0.316 µM; first compound 0.0316 µM; active compounds read low
Recorded viability, T/C values for a group of compounds are listed next.
Numbers only; they are read as %.

Below, each entry is followed by its recorded viability, T/C result.
INSERT INTO results (compound, value_measured) VALUES
  ('CC(=O)c1c(C)c2cnc(Nc3ccc(N4CCNCC4)cn3)nc2n(C2CCCC2)c1=O + CC(Nc1ncnc2nc[nH]c12)c1cc2cccc(Cl)c2c(=O)n1-c1ccccc1', 86.9),
  ('CCN1CCN(Cc2ccc(Nc3ncc(F)c(-c4cc(F)c5nc(C)n(C(C)C)c5c4)n3)nc2)CC1 + COc1c(OCCCN2CCOCC2)ccc2c3n(c(=NC(=O)c4cnc(N)nc4)nc12)CCN3', 14.8);

Q: What value of viability, T/C has been recorded for this entry: CNC(=O)c1ccc(N2C(=S)N(c3ccc(C#N)c(C(F)(F)F)c3)C(=O)C2(C)C)cc1F + COc1c(OCCCN2CCOCC2)ccc2c3n(c(=NC(=O)c4cnc(N)nc4)nc12)CCN3
A: 18.9

These data points were gathered from PubChem BioAssay AID1963959.
